This collection of values is drawn from ChEMBL document CHEMBL1201862.

# maps each entry to its GI50
# Test system: SF-268
# Procedure text: NCI tumour cell line growth inhibition, 48 h
Active and inactive are the calls of the source. No stated cut-off is given here; in the data, active = GI50 up to about 1.1 µM and inactive = higher.
Outcome measure: GI50

[[record]]
compound = "Cc1cccc(NC(=S)N/N=C2\\C(=O)Nc3ccccc32)c1"
meas_value = "4.98 µM (inactive)"

[[record]]
compound = "NCC(O)CN.Oc1c(Cl)c(Cl)c(Cl)c(Cl)c1Cl"
meas_value = "29.2 µM (inactive)"

[[record]]
compound = "CCC1C(=O)C[C@H]2[C@@H]3C(O)CC4=CC(=O)CC[C@]4(C)[C@H]3CC[C@]12C (stereo not given in full)"
meas_value = "> 50 µM (inactive)"

[[record]]
compound = "Cc1ccc2c(c1)CC1(Cc3c(C)cccc3C1=O)C2=O (stereo not given)"
meas_value = "> 100 µM (inactive)"

[[record]]
compound = "COc1cc(O)c2c(c1)C(=O)C1=C(C2=O)C(O)C[C@@](C)(O)C1 (stereo not given in full)"
meas_value = "2.01 µM (inactive)"

[[record]]
compound = "O=C(c1ccc(Cl)cc1)N(C(=S)N1CCN(c2ccccn2)CC1)C1CCCCC1"
meas_value = "27.3 µM (inactive)"

[[record]]
compound = "COC(=O)C(/C(=N/N)C(=O)Nc1cc(Cl)ccc1Cl)c1nc2ccc([N+](=O)[O-])cc2nc1O (stereo not given)"
meas_value = "92.3 µM (inactive)"

[[record]]
compound = "Cc1ccc2oc(=O)c(-c3ccccc3)nc2c1"
meas_value = "25.2 µM (inactive)"

[[record]]
compound = "C=C1C(=O)OC2C1CCC(=C)C1CC(O)C(=C)C12 (stereo not given)"
meas_value = "15.4 µM (inactive)"

[[record]]
compound = "N#CCCOc1cccc(C2(N3CCCCC3)CCCCC2)c1"
meas_value = "> 100 µM (inactive)"

[[record]]
compound = "C[C@]1(CO)[C@H]2CC[C@@]34C=C[C@@](CO)(CC[C@H]3[C@]2(C)CC[C@H]1O)C4"
meas_value = "47.3 µM (inactive)"

[[record]]
compound = "C/C(=N\\N=C(/S)N1CCCCCC1)c1cccc[n+]1[O-]"
meas_value = "9.29 µM (inactive)"

[[record]]
compound = "CN1CCN(c2nc3c(c(=O)n(C)c(=O)n3C)n2C)CC1"
meas_value = "> 100 µM (inactive)"

[[record]]
compound = "C=CNC(=O)NC(=O)CSc1nc(=O)c(-c2ccccc2NC(=O)C(F)(F)F)n[nH]1"
meas_value = "37.4 µM (inactive)"

[[record]]
compound = "CCCc1[nH]c(SCCCCCCCCSc2nc(-c3ccc(F)cc3)c(CCC)[nH]2)nc1-c1ccc(F)cc1"
meas_value = "3.33 µM (inactive)"

[[record]]
compound = "COc1cc(C[C@H]2C(=O)OC[C@@H]2Cc2ccc(OC)c(OC)c2)cc(OC)c1"
meas_value = "> 100 µM (inactive)"

[[record]]
compound = "CCC1CCC2c3c([nH]c4ccccc34)C3C(=O)N(c4ccc(OC)cc4)C(=O)C3C2C1 (stereo not given)"
meas_value = "52.5 µM (inactive)"

[[record]]
compound = "CC(C)(C)OC(=O)NCC(c1c[nH]c2ccc(Br)cc12)c1c[nH]c2ccc(Br)cc12"
meas_value = "8.43 µM (inactive)"

[[record]]
compound = "COc1nc(N)c(N=O)c(OCc2ccccc2)n1"
meas_value = "> 10 µM (inactive)"

[[record]]
compound = "Cc1c(/N=N/c2ccc(Cl)cc2)c(C)n(C2OC(CO)C(O)C(O)C2O)c(=S)c1C#N (stereo not given)"
meas_value = "16 µM (inactive)"


====

# System: SK-MEL-5
# Procedure text: NCI tumour cell line growth inhibition, 48 h
Calls of active or inactive are those of the source. Cut-off read from the data, not from the text of the source: active = GI50 up to about 1.1 µM and inactive = higher.
Possible outcomes: T (active), F (inactive)

[[record]]
molecule = "Clc1ccc(OCc2nnc3sc(SSc4nn5c(COc6ccc(Cl)cc6)nnc5s4)nn23)cc1"
classification = "F"

[[record]]
molecule = "CC1NC(=O)C2=C1C(N)=NC(=O)C2 (stereo not drawn)"
classification = "F"

[[record]]
molecule = "COc1cc(C=O)cc(/C=N/c2ccc(S(N)(=O)=O)cc2)c1O"
classification = "F"

[[record]]
molecule = "NC(=O)c1[nH]nc(C2OC(CO)C(O)C2O)c1O (stereo not drawn)"
classification = "F"

[[record]]
molecule = "O=C(Nc1ccccc1SC(/C=C/NNC1=NN=C(c2ccccc2)C(c2ccccc2)N1)c1ccccc1)c1ccc(Cl)cc1Cl (stereo not drawn)"
classification = "F"

[[record]]
molecule = "NC(=O)c1ccccc1NC(=O)C(=O)Nc1n[nH]c(N)n1"
classification = "F"

[[record]]
molecule = "CC1=C(c2ccc(C)cc2)NC(=S)C(C)C(c2ccc(C)cc2)=N1 (stereo not drawn)"
classification = "F"

[[record]]
molecule = "COC(=O)c1ccc(/C=C/S(=O)(=O)c2ccccc2)cc1"
classification = "F"

[[record]]
molecule = "COc1ccc(NC(=O)C(C#N)=C(SC)SC)cc1"
classification = "F"

[[record]]
molecule = "CC(=O)N(C)SCC(NC(=O)C(Cc1ccccc1)NC(=O)OCc1ccccc1)C(=O)NC(Cc1ccccc1)C(=O)NC(Cc1cn(C=O)c2ccccc12)C(=O)NC(CCCCNC(=O)OCc1ccccc1)C(=O)NC(C(=O)NC(CSN(C)C(C)=O)C(=O)NO)C(C)OCc1ccccc1 (stereo not drawn)"
classification = "F"

[[record]]
molecule = "O=C(CC/C(C/C(=N/O)c1ccc(F)cc1)=N/O)N(Cc1ccccc1)Cc1ccccc1"
classification = "F"

[[record]]
molecule = "O=C(NCCNCCO)N/N=C/c1cccc([N+](=O)[O-])c1"
classification = "F"

[[record]]
molecule = "BC(=O)NC(CC(C)C)C(=O)NC1c2ccsc2C(=O)C1O.CN(C)C (stereo not drawn)"
classification = "F"

[[record]]
molecule = "Cn1ncc2c(Nc3cccc(Cl)c3)nc(Nc3cccc(Cl)c3)nc21"
classification = "F"

[[record]]
molecule = "CCC(C)C1NC(=O)C(NC(=O)C(CC(C)C)N(C)C(=O)[C@@H]2CC(O)CN2C(=O)[C@H](C)O)C(C)OC(=O)[C@H](Cc2ccc(OC)cc2)N(C)C(=O)[C@@H]2CCCN2C(=O)[C@H](CC(C)C)NC(=O)C(C)C(=O)[C@H](C(C)C)OC(=O)CC1O (stereo partly drawn)"
classification = "T"

[[record]]
molecule = "COc1ccc(CNc2nc3cc(C(F)(F)F)ccc3nc2C(=O)O)cc1"
classification = "F"

[[record]]
molecule = "COc1ccc(CCN2C(=O)C(=O)C(C(=O)c3ccccc3)C2c2ccccc2)cc1OC (stereo not drawn)"
classification = "F"

[[record]]
molecule = "CC(=O)N1C2=CCCC2(C)c2ccccc21 (stereo not drawn)"
classification = "F"


====

# Test system: ACHN
# Procedure text: NCI tumour cell line growth inhibition, 48 h
Active and inactive are the calls of the source. Cut-off read from the data, not from the text of the source: active = GI50 up to about 1.1 µM and inactive = higher.
Possible outcomes: Yes (active), No (inactive)

[[record]]
molecule = "COc1cccc(C2c3cc4c(cc3OC(NNS(=O)(=O)c3ccc(C)cc3)C2C)OCO4)c1OC (configuration not stated)"
target_under_test = "ACHN"
classification = "No"

[[record]]
molecule = "COc1ccc2cc(CNCCCCCCNCc3ccc4cc(OC)ccc4c3)ccc2c1"
target_under_test = "ACHN"
classification = "No"

[[record]]
molecule = "CCC(CC)NC1=C(NC(C)=O)C(=O)c2ccccc2C1=O"
target_under_test = "ACHN"
classification = "No"

[[record]]
molecule = "Cc1cccc(NC(=S)N/N=C2\\C(=O)Nc3ccccc32)c1"
target_under_test = "ACHN"
classification = "No"

[[record]]
molecule = "O=C1NC(=O)C(C(=O)C(=O)Nc2cc(Cl)ccc2Cl)C(=O)N1"
target_under_test = "ACHN"
classification = "No"

[[record]]
molecule = "COc1nc(N)c(N=O)c(OCc2ccccc2)n1"
target_under_test = "ACHN"
classification = "No"

[[record]]
molecule = "CCOC(=O)CCc1c(C(=O)OCC)[nH]c(/C=C2/NC(=O)C(C)=C2CC)c1C"
target_under_test = "ACHN"
classification = "No"

[[record]]
molecule = "COC(=O)/C=C1/OC(c2ccccc2)=CC1=O"
target_under_test = "ACHN"
classification = "No"

[[record]]
molecule = "O=C(O)CNC(=O)c1cccc2c(=O)c3ccccc3[nH]c12"
target_under_test = "ACHN"
classification = "No"

[[record]]
molecule = "Cc1cccc(NC(=O)C(=O)C2C(=O)NC(=O)NC2=O)c1C"
target_under_test = "ACHN"
classification = "No"

[[record]]
molecule = "COc1cc(/C=C2/C(=O)NC(Cc3cc(OC)c(OC)c(C)c3OC)C(=O)N2Cc2ccccc2)c(OC)c(C)c1OC (configuration not stated)"
target_under_test = "ACHN"
classification = "No"

[[record]]
molecule = "C/C(=N\\Nc1nc2ccccc2s1)c1ncccn1"
target_under_test = "ACHN"
classification = "Yes"

[[record]]
molecule = "CNC1CC(n2cc(C)c(=O)[nH]c2=O)OC1CO (configuration not stated)"
target_under_test = "ACHN"
classification = "No"

[[record]]
molecule = "COc1cc([C@@H]2c3cc4c(cc3[C@@H](Nc3ccc(Cl)cc3C(=O)c3ccccc3Cl)[C@H]3COC(=O)[C@H]23)OCO4)cc(OC)c1OC"
target_under_test = "ACHN"
classification = "Yes"

[[record]]
molecule = "O=C(CCCCCCCCC(=O)N1C(=O)CC(=O)N(c2ccc(Cl)cc2)C1=S)N1C(=O)CC(=O)N(c2ccc(Cl)cc2)C1=S"
target_under_test = "ACHN"
classification = "No"

[[record]]
molecule = "COc1ccc2c(c1)N=C(N)n1c(nc3ccccc31)S2"
target_under_test = "ACHN"
classification = "No"

[[record]]
molecule = "N#Cc1ccc(/C=N/C23CC4CC(CC(C4)C2)C3)cc1"
target_under_test = "ACHN"
classification = "No"

[[record]]
molecule = "CN(C)c1ccc(/C=C/c2ccnc3ccc4ccccc4c23)cc1"
target_under_test = "ACHN"
classification = "No"

[[record]]
molecule = "CCN(N=O)C1C2(CCCC2)NC(=O)C12CCCC2 (configuration not stated)"
target_under_test = "ACHN"
classification = "No"

[[record]]
molecule = "Cc1ccc(S(=O)(=O)N(c2ccccc2F)C2CCCCC2O)cc1 (configuration not stated)"
target_under_test = "ACHN"
classification = "No"

[[record]]
molecule = "CCN(CC)CCNc1ccc(C)c2sc3ccc(O)cc3c(=O)c12"
target_under_test = "ACHN"
classification = "Yes"

[[record]]
molecule = "Cc1nc2ccccc2cc1C[N+]12CN3CN(CN(C3)C1)C2"
target_under_test = "ACHN"
classification = "No"

[[record]]
molecule = "CCC(Sc1cc(Cl)c(C)cc1S(=O)(=O)Nc1nc(N)nc(N(C)C)n1)C(=O)O (configuration not stated)"
target_under_test = "ACHN"
classification = "No"

[[record]]
molecule = "COc1cc(/C=C\\c2cccnc2)cc(OC)c1OC"
target_under_test = "ACHN"
classification = "No"

[[record]]
molecule = "CS/C=C\\C(=O)O[C@H]1C[C@@H]2[C@@H](O)c3occ(C)c3C[C@]2(C)[C@@H](C)C1"
target_under_test = "ACHN"
classification = "No"

[[record]]
molecule = "CC1=CCC2CC1C(C(=O)c1c[nH]c3ccccc13)=NC2(C)C (configuration not stated)"
target_under_test = "ACHN"
classification = "No"

[[record]]
molecule = "COc1ccc(C(c2ccc(C(C)C)cc(=O)c2O)c2c(O)cc3oc(-c4ccccc4)cc(=O)c3c2O)cc1 (configuration not stated)"
target_under_test = "ACHN"
classification = "No"

[[record]]
molecule = "CCc1c(-c2coc(CC/C(C)=C/c3ccccc3)n2)oc(OC)c(C)c1=O"
target_under_test = "ACHN"
classification = "No"

[[record]]
molecule = "CC(C)(C)c1cc(C(P(=O)(O)O)P(=O)(O)O)cc(C(C)(C)C)c1O"
target_under_test = "ACHN"
classification = "No"

[[record]]
molecule = "c1cc2c(ncc3cscc32)s1"
target_under_test = "ACHN"
classification = "No"

[[record]]
molecule = "CC1=C(C(=O)Nc2cccc(C(F)(F)F)c2)C(c2ccc(O)cc2)C(C(=O)Nc2cccc(C(F)(F)F)c2)=C(C)N1"
target_under_test = "ACHN"
classification = "No"

[[record]]
molecule = "CC(=O)n1nnc2ccc([N+](=O)[O-])cc21"
target_under_test = "ACHN"
classification = "No"

[[record]]
molecule = "CCOC(=O)C1=COC(C)(C)CC1=O"
target_under_test = "ACHN"
classification = "No"

[[record]]
molecule = "Cc1nc2ccccc2c(-n2cccn2)c1CCn1cccn1"
target_under_test = "ACHN"
classification = "No"

[[record]]
molecule = "O=C(c1ccccc1)c1c(-c2ccccc2)[nH]n(-c2ccc([N+](=O)[O-])cc2)c(=O)c1=O"
target_under_test = "ACHN"
classification = "No"

[[record]]
molecule = "CC(C)N(C(=O)C12C3(C(=O)OC(C)(C)C)C4C5(C#N)C3C1(C(=O)OC(C)(C)C)C5C42C(=O)OC(C)(C)C)C(C)C (configuration not stated)"
target_under_test = "ACHN"
classification = "No"

[[record]]
molecule = "O=C(O)[C@@H]1[C@H](C(=O)O)[C@H](C(=O)O)C[C@@H]1C(=O)O"
target_under_test = "ACHN"
classification = "No"

[[record]]
molecule = "C=C1c2nc3ccccc3n2C=C(c2ccc(Cl)cc2)N1c1ccc(OC)cc1"
target_under_test = "ACHN"
classification = "No"

[[record]]
molecule = "COc1cccc(CCn2c(N)c(C#N)c3ccc([N+](=O)[O-])cc3c2=O)c1"
target_under_test = "ACHN"
classification = "No"

[[record]]
molecule = "CCn1c(SCC(=O)N/N=C/c2ccccc2)nc2ccccc2c1=O"
target_under_test = "ACHN"
classification = "No"

[[record]]
molecule = "COC(=O)C#CC(N)=O"
target_under_test = "ACHN"
classification = "No"

[[record]]
molecule = "CC(=O)Nc1cccc2[nH]c3ccccc3c(=O)c12"
target_under_test = "ACHN"
classification = "No"

